# experimental.system: MLKL (Homo sapiens)
# experimental.details: MLKL degradation assay in HepG2 cell line (western blot)
# Format: cell-based
# Design: endogenous in cells; host or cells: HepG2 or HaCaT
# measurement.parameters: compound 1 μM; cell line not given
measurement.label: Degradation assay (Degradation %) 1 μM

molecule="Nc1ncc(-c2cnn(C3CCN(CC4CCN(C(=O)CNc5cccc6c5C(=O)N(C5CCC(=O)NC5=O)C6=O)CC4)CC3)c2)nc1C(=O)N[C@@H](C(=O)Nc1ccc(F)cc1)c1ccccc1 (stereo partly shown) [TDH-206]" experimental_system="MLKL (Homo sapiens)" measurement_label="Degradation assay (Degradation %) 1 μM" value_reported=21.78%
molecule="Nc1ncc(-c2cnn(C3CCN(CCOC4CCN(C(=O)COc5cccc6c5C(=O)N(C5CCC(=O)NC5=O)C6=O)CC4)CC3)c2)nc1C(=O)O[C@@H](C(=O)Nc1ccc(F)cc1)c1ccccc1 (stereo partly shown) [TDH-331]" experimental_system="MLKL (Homo sapiens)" measurement_label="Degradation assay (Degradation %) 1 μM" value_reported=54.86%
molecule="Nc1ncc(-c2cnn(C3CCN(CCC4CCN(C(=O)CC5CCN(c6ccc7c(c6)C(=O)N(C6CCC(=O)NC6=O)C7=O)CC5)CC4)CC3)c2)nc1C(=O)O[C@@H](C(=O)Nc1ccc(F)cc1)c1ccccc1 (stereo partly shown) [TDH-367]" experimental_system="MLKL (Homo sapiens)" measurement_label="Degradation assay (Degradation %) 1 μM" value_reported=84.28%
molecule="Nc1ncc(-c2cnn(C3CCN(CC4CCN(C(=O)C5CN(c6cccc7c6C(=O)N(C6CCC(=O)NC6=O)C7=O)C5)CC4)CC3)c2)nc1C(=O)O[C@@H](C(=O)Nc1ccc(F)cc1)c1ccccc1 (stereo partly shown) [TDH-138]" experimental_system="MLKL (Homo sapiens)" measurement_label="Degradation assay (Degradation %) 1 μM" value_reported=40.46%
molecule="Nc1ncc(-c2cn(C3CCN(CC4CCN(C(=O)CNc5ccc6c(c5)C(=O)N(C5CCC(=O)NC5=O)C6=O)CC4)CC3)nn2)nc1C(=O)OC(C(=O)Nc1ccc(F)cc1)c1ccccc1 (stereo not shown) [TDH-223]" experimental_system="MLKL (Homo sapiens)" measurement_label="Degradation assay (Degradation %) 1 μM" value_reported=29.38%

Next molecule, Degradation assay (Degradation %) 1 μM to be filled in.
Short answer for Nc1ncc(-c2cnn(C3CCN(CCCN4CCN(C(=O)COc5ccc6c(c5)C(=O)N(C5CCC(=O)NC5=O)C6=O)CC4)CC3)c2)nc1C(=O)O[C@@H](C(=O)Nc1ccc(F)cc1)c1ccccc1Cl (stereo partly shown) [TDH-494] : Degradation assay (Degradation %) 1 μM was 80.66%

* * *

Measured Necroptosis inhibition assay (Rescue %) 10 μM, listed per entry.
# Test system: FADD−/− Jurkat cells
# experimental.details: Necroptosis inhibition assay, TNF-α-induced necroptosis (CellTiter-Glo 2.0)
# Format: cell-based, human
# measurement.parameters: compound 10 μM; TNF-α 15 ng/mL, FADD−/− Jurkat cells
Give the quantity in %, number only.

For Nc1ncc(-c2cnn(C3CCN(CC4CCN(CC5CCN(c6ccc7c(c6)C(=O)N(C6CCC(=O)NC6=O)C7=O)CC5)CC4)CC3)c2)nc1C(=O)O[C@@H](C(=O)Nc1ccc(F)cc1)c1ccccc1 (some centres unmarked) the molecule record lists Necroptosis inhibition assay (Rescue %) 10 μM as −13.59

Per the record, Nc1ncc(-c2cnn(C3CCN(CCC4CCN(C(=O)C5CN(C6=CC(=O)N(C7CCC(=O)NC7=O)C6=O)C5)CC4)CC3)c2)nc1C(=O)O[C@@H](C(=O)Nc1ccc(F)cc1)c1ccccc1 (some centres unmarked) has Necroptosis inhibition assay (Rescue %) 10 μM of 15.34

The molecule identified as COc1ccc(C(=O)N2CCC(C(=O)N3CCC(CCN4CCC(n5cc(-c6cnc(N)c(C(=O)O[C@@H](C(=O)Nc7ccc(F)cc7)c7ccccc7)n6)cn5)CC4)CC3)CC2)cc1N1CCC(=O)NC1=O registered its Necroptosis inhibition assay (Rescue %) 10 μM at 10.78

Given item Nc1ncc(-c2cnn(C3CCN(CCCN4CCN(C(=O)COc5ccc6c(c5)C(=O)N(C5CCC(=O)NC5=O)C6=O)CC4)CC3)c2)nc1C(=O)O[C@@H](C(=O)Nc1ccc(F)cc1)c1ccccc1Cl (some centres unmarked) , the value recorded as its Necroptosis inhibition assay (Rescue %) 10 μM is −7.06

The reported Necroptosis inhibition assay (Rescue %) 10 μM of the molecule COc1ccc(C(=O)NCC2CCC(CN3CCC(n4cc(-c5cnc(N)c(C(=O)O[C@@H](C(=O)Nc6ccc(F)cc6)c6ccccc6)n5)cn4)CC3)CC2)cc1N1CCC(=O)NC1=O (some centres unmarked) was −1.14

* * *

# Test system: FADD−/− Jurkat cells
# experimental.details: Necroptosis inhibition assay, TNF-α-induced necroptosis (CellTiter-Glo 2.0)
# Format: cell-based, human
# measurement.parameters: compound 10 μM; TNF-α 15 ng/mL, FADD−/− Jurkat cells
measurement.label: Necroptosis inhibition assay (Rescue %) 10 μM
Value expressed in %; do not type the unit.

Illustrative cases are given below, each with its answer.
compound="Nc1ncc(-c2cnn(C3CCN(C(=O)CCC4CCN(C(=O)COc5ccc6c(c5)C(=O)N(C5CCC(=O)NC5=O)C6=O)CC4)CC3)c2)nc1C(=O)O[C@@H](C(=O)Nc1ccc(F)cc1)c1ccccc1 (stereo partly drawn)" experimental_system="FADD−/− Jurkat cells" readout_units=% value_reported=43.06
compound="Nc1ncc(-c2cnn(C3CCN(C(=O)C4CCN(C(=O)C5CN(c6ccc7nnn(C8CCC(=O)NC8=O)c(=O)c7c6)C5)CC4)CC3)c2)nc1C(=O)O[C@@H](C(=O)Nc1ccc(F)cc1)c1ccccc1 (stereo partly drawn)" experimental_system="FADD−/− Jurkat cells" readout_units=% value_reported=24.45

Consider now this further compound.
Kindly note the recorded Necroptosis inhibition assay (Rescue %) 10 μM for COc1ccc(C(=O)N2CCC(CN3CCC(CCN4CCC(n5cc(-c6cnc(N)c(C(=O)O[C@@H](C(=O)Nc7ccc(F)cc7)c7ccccc7)n6)cn5)CC4)CC3)CC2)cc1N1CCC(=O)NC1=O , which is 76.87

* * *

# Necroptosis inhibition assay (Rescue %) 1 μM listing for each entry below
# Tested on: FADD−/− Jurkat cells
# experimental.details: Necroptosis inhibition assay, TNF-α-induced necroptosis (CellTiter-Glo 2.0)
# Type: cell-based, human
# measurement.parameters: compound 1 μM; TNF-α 15 ng/mL
Form field: result (number plus unit)

Worked cases, Necroptosis inhibition assay (Rescue %) 1 μM given:
compound="Nc1ncc(-c2cnn(C3CCN(C(=O)CC4CCN(C(=O)CNc5cccc6c5C(=O)N(C5CCC(=O)NC5=O)C6=O)CC4)CC3)c2)nc1C(=O)O[C@@H](C(=O)Nc1ccc(F)cc1)c1ccccc1 (some centres unmarked) [TDH-339]" value_reported=12.23%
compound="Nc1ncc(-c2cnn(C3CCN(CC4CCN(C(=O)CNc5cccc6c5C(=O)N(C5CCC(=O)NC5=O)C6=O)CC4)CC3)c2)nc1C(=O)O[C@@H](C(=O)Nc1ccc(F)cc1)c1ccccc1 (some centres unmarked) [TDH-136]" value_reported=48.59%
compound="Nc1ncc(-c2cnn(C3CCN(C(=O)CC4CCN(c5ccc6c(c5)C(=O)N(C5CCC(=O)NC5=O)C6=O)CC4)CC3)c2)nc1C(=O)O[C@@H](C(=O)Nc1ccc(F)cc1)c1ccccc1 (some centres unmarked) [TDH-344]" value_reported=14.48%
compound="Nc1ncc(-c2cnn(C3CCN(C(=O)COCCOCCNC(=O)C4CCN(c5ccc6c(c5)C(=O)N(C5CCC(=O)NC5=O)C6=O)CC4)CC3)c2)nc1C(=O)O[C@@H](C(=O)Nc1ccc(F)cc1)c1ccccc1 (some centres unmarked) [TDH-195]" value_reported=80.66%

Form field Necroptosis inhibition assay (Rescue %) 1 μM, entry Nc1ncc(-c2cnn(C3CCN(CCCCCCCCCCNc4ccc5nnn(C6CCC(=O)NC6=O)c(=O)c5c4)CC3)c2)nc1C(=O)O[C@@H](C(=O)Nc1ccc(F)cc1)c1ccccc1 (some centres unmarked) [TDH-179] : 23.48%

* * *

// Degradation assay (Degradation %) 10 μM lookup, one value per entry
# experimental.system: MLKL (Homo sapiens, UniProt Q8NB16)
# Sequence (Q8NB16 whole entry): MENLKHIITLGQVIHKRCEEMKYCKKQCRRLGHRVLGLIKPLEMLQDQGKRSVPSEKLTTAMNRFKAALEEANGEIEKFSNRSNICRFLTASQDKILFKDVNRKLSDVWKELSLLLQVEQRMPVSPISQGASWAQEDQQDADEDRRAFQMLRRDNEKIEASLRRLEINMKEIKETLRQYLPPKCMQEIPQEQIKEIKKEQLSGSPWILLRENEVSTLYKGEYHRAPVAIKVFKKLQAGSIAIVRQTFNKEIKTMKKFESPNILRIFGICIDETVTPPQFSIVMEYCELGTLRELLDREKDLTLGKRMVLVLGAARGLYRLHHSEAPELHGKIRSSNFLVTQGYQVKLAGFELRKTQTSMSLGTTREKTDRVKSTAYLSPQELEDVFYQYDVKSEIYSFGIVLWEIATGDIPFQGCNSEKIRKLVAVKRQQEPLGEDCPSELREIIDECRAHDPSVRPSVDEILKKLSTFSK
# experimental.details: MLKL degradation assay in HepG2 cell line (western blot)
# Format: cell-based
# Parameters: endogenous in cells; host or cells: HepG2 or HaCaT
# measurement.parameters: compound 10 μM; cell line not given
Kindly provide the numeric value in % only, without the unit symbol.

The following compounds have reported results that may help.
compound="Nc1ncc(-c2cnn(C3CCN(CCCN4CCN(CC5CCN(c6ccc7c(c6)C(=O)N(C6CCC(=O)NC6=O)C7=O)CC5)CC4)CC3)c2)nc1C(=O)O[C@@H](C(=O)Nc1ccc(F)cc1)c1ccccc1 (stereo partly drawn) [TDH-474]" measurement_label="Degradation assay (Degradation %) 10 μM" value_reported=68.31
compound="Nc1ncc(-c2cnn(C3CCN(C(=O)CCC4CCN(C(=O)COc5ccc6nnn(C7CCC(=O)NC7=O)c(=O)c6c5)CC4)CC3)c2)nc1C(=O)O[C@@H](C(=O)Nc1ccc(F)cc1)c1ccccc1 (stereo partly drawn) [TDH-437]" measurement_label="Degradation assay (Degradation %) 10 μM" value_reported=79.50

Could you now consider this next compound?
The compound Nc1ncc(-c2cnn(C3CCN(CC4CCN(C(=O)CNc5cccc6c5C(=O)N(C5CCC(=O)NC5=O)C6=O)CC4)CC3)c2)nc1C(=O)O[C@@H](C(=O)Nc1ccc(F)cc1)c1ccccc1 (stereo partly drawn) [TDH-136] , when measured on MLKL (Homo sapiens, UniProt Q8NB16), yielded Degradation assay (Degradation %) 10 μM of 48.83
